Target: FAAH (Mus musculus, UniProt O08914)
Construct: Proteomes (mouse brain membrane fraction or cell lysates); from tissue; host or cells: mouse brain membrane fraction (or cell lysates, not specified)
Sequence (O08914 whole entry): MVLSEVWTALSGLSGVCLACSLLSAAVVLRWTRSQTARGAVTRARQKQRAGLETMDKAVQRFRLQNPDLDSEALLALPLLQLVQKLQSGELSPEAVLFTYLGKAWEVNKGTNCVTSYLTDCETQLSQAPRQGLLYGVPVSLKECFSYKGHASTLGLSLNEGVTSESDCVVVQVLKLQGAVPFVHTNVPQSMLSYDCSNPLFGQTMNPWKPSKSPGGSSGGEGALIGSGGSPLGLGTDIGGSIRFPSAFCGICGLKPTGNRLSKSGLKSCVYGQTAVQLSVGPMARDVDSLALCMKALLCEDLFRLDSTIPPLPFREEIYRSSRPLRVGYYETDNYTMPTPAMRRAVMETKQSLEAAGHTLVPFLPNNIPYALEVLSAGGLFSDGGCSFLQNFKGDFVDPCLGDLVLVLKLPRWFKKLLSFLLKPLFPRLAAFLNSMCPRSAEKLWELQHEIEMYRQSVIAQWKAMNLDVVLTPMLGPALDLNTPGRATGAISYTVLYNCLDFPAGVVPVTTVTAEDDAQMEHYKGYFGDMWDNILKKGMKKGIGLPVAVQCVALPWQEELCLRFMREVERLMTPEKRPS
Test: In vitro competitive activity-based protein profiling (gel-based, FP-Rh or HT-01 probe)
Type: biochemical
Conditions: mouse brain membrane fraction or cell lysates, 30 min preincubation at 37° C.; read-out: Mouse (IC50 value, nM) FAAH
QUANTITY_KIND: IC50

Please review the following examples before continuing.
In [3]: df
Out[3]:
                         chemical_structure  data_value
0  CCN(Cc1cccc(OC)c1)C(=O)n1cc(C(F)(F)F)cn1    < 100 nM
1  CCN(Cc1ccc(N2CCOCC2)cc1)C(=O)n1cc(C(F)(F)F)cn1    < 100 nM

Problem: For COc1cccc(N2CCN(C(=O)n3cc(C(F)(F)F)cn3)CC2)c1 , what is its reported IC50?
Result: < 100 nM

Problem: For CCN(Cc1cccc(Cl)c1)C(=O)n1cc(Cl)cn1 , what is its reported IC50?
Result: 100 to 1000 nM

Problem: For N#Cc1cnn(C(=O)N2CCN(Cc3ccccc3)CC2)c1 , what is its reported IC50?
Result: 100 to 1000 nM

Problem: For O=C(N1CCN(Cc2ccc(Cl)c(Cl)c2)CC1)n1cc(Cl)cn1 , what is its reported IC50?
Result: < 100 nM

Problem: For CCN(Cc1cccc(N2CCOCC2)c1)C(=O)n1cc(Cl)cn1 , what is its reported IC50?
Result: 100 to 1000 nM

Problem: For CCN(Cc1cccc(OC)c1)C(=O)n1cc(Cl)cn1 , what is its reported IC50?
Result: 100 to 1000 nM

* * *

Molecular target: PLA2G7 (Mus musculus)
Construct: Proteomes (mouse brain membrane fraction or cell lysates); from tissue; host or cells: mouse brain membrane fraction (or cell lysates, not specified)
Sequence (Q60963 22-440): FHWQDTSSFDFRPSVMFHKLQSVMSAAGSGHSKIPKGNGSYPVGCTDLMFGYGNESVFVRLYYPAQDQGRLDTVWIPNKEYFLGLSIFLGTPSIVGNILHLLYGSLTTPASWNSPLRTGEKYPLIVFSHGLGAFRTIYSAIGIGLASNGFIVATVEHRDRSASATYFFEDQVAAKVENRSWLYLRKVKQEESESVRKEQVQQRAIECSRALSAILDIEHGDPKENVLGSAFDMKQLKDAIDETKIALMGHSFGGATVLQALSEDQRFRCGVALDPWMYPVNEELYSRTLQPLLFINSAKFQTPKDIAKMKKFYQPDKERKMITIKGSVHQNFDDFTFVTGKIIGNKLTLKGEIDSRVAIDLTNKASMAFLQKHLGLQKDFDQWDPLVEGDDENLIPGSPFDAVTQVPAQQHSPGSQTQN
Experiment: In vitro competitive activity-based protein profiling (gel-based, FP-Rh or HT-01 probe)
Assay type: biochemical
Settings: 10 μM inhibitor; read-out: % Inhibition at 10 μM, D = PLA2G7
QUANTITY_KIND: inhibition at 10 µM

Please review the following examples before continuing.
>>> print(df.to_string())
                         chemical_structure  data_value
0  O=C(c1cnn(C(=O)N2CCN(Cc3cncnc3)CC2)c1)N1CCCC1       > 75%
1         CC(=O)N1CCN(C(=O)n2cc(C#N)cn2)CC1       > 75%
2                  N#Cc1cnn(C(=O)N2CCCC2)c1       > 75%
3              O=C(NCc1ccc2ccccc2c1)n1cccn1       < 25%
4  Cc1ccccc1-c1cnn(C(=O)N2CCN(C(c3ccc(Cl)cc3)c3ccc(Cl)cc3)CC2)c1       > 75%

Problem: For Cc1cnn(C(=O)N2CCCCC2)c1 , what is its reported inhibition at 10 µM?
Result: > 75%

Problem: For Cc1cnn(C(=O)N(C)CCN(C)C(=O)OC(C)(C)C)c1 , what is its reported inhibition at 10 µM?
Result: < 25%

Problem: For CCN(Cc1cccc(C)c1)C(=O)n1cc(Cl)cn1 , what is its reported inhibition at 10 µM?
Result: < 25%

Problem: For O=C(N1CCN(Cc2cncnc2)CC1)n1cc(-c2ccccc2)cn1 , what is its reported inhibition at 10 µM?
Result: > 75%
